Parameter pEC50: see the listing below.
- assayed.system: CFTR (Homo sapiens, UniProt P13569)
- Sequence (P13569 with tags, fused parts or gaps DEL508-508): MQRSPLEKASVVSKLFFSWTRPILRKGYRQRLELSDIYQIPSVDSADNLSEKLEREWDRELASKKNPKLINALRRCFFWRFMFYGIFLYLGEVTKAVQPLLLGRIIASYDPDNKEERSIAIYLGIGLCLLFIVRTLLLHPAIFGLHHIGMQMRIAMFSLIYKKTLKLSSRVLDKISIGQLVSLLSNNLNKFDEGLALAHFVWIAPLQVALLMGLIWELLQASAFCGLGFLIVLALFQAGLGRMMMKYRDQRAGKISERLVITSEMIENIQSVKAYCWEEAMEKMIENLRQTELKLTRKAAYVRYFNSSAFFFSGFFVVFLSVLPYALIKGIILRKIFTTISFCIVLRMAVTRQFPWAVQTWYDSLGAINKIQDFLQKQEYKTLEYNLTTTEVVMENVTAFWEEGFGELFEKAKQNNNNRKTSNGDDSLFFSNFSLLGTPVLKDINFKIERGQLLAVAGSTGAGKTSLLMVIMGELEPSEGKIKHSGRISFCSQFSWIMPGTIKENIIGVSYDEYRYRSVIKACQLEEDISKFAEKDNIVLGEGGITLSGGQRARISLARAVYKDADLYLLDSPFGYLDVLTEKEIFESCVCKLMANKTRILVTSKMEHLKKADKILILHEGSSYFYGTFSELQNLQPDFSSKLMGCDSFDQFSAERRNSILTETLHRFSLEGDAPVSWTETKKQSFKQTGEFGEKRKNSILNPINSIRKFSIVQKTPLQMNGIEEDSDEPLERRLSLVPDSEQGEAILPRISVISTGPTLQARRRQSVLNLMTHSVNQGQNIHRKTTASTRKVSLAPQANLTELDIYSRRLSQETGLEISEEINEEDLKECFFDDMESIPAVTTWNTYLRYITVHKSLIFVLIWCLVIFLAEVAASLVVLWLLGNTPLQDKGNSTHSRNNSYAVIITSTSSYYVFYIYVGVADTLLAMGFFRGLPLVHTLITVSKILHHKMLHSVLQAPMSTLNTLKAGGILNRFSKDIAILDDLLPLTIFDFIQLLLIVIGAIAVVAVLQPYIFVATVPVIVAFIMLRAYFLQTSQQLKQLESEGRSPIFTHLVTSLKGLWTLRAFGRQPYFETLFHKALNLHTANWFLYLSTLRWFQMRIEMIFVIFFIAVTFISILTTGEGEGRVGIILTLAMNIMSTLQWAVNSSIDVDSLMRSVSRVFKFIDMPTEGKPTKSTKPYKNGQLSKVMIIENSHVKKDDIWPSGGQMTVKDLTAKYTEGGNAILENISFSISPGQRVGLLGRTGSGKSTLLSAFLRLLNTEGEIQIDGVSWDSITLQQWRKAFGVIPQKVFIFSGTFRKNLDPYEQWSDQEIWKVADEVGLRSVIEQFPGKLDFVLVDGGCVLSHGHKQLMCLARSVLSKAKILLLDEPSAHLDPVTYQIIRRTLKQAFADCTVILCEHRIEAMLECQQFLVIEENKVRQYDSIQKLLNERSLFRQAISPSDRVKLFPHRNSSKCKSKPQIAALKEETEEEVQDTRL
- protocol.notes: Membrane Potential Dye, Enteroid Assay A
- Assay type: cell-based
- assay.conditions: Table 9; read-out: Ent. A EC50
- Procedure: Base medium (ADF+++) consisted of Advanced DMEM/Ham's F12, 2 mM Glutamax, 10 mM HEPES, […] penicillin/streptomycin. Bath 1 Buffer consisted of 1 mM MgCl2, 160 mM NaCl, 4.5 mM KCl, 10 mM HEPES, 10 mM Glucose, 2 mM CaCl2). […] Briefly, cells were washed 5 times in Bath 1 Buffer. […] Chloride transport was initiated by addition of Chloride Free Dye Stimulation Solution and the fluorescence signal was read for 15 min. […]
pEC50: −log10 of the molar value.

Consider the worked cases shown below.
Cc1ccc(Cc2cccc(C)c2-c2cc3nc(n2)NS(=O)(=O)c2cccc(c2)C(=O)N[C@H](CC(C)C)CO3)cc1: > 6.00
Cc1cccc(C)c1-c1cc2nc(n1)NS(=O)(=O)c1cccc(c1)C(=O)NCC(c1ccc(C3CCC3)cc1)O2 (single isomer, unassigned) [Compound 14]: > 6.00
Cc1cccc(C)c1-c1cc2nc(n1)NS(=O)(=O)c1cccc(c1)C(=O)NC1(CCC(C(C)(C)C)CC1)CO2 (stereo not drawn): > 6.00
Cc1cccc(C)c1-c1cc2nc(n1)NS(=O)(=O)c1cccc(c1)C(=O)N[C@@H]1CN(Cc3ccccc3)C[C@H]1O2: > 6.00

Ask: Form entry - test system: CFTR (Homo sapiens, UniProt P13569); read-out: pEC50; molecule: Cc1cccc(C)c1-c1cc2nc(n1)NS(=O)(=O)c1cccc(c1)C(=O)NCCC(c1ccc(C(C)(C)C)cc1)O2 (stereo not drawn)
Reply: 5.52 to 6.00

Ask: Then Cc1cccc(C)c1-c1cc2nc(n1)NS(=O)(=O)c1cccc(c1)C(=O)NC(C)(CC(C)C)CO2 (stereo not drawn) [Compound 176] ?
Reply: > 6.00

----------
- assayed.system: CFTR (Homo sapiens, UniProt P13569)
- protocol.notes: Membrane Potential Dye, Enteroid Assay B
- Format: cell-based
- assay.conditions: Table 9
experimental.readout: Ent. B Max Activity

The examples below pair each entry with its known result.
Cc1cccc2c1-c1cc3nc(n1)NS(=O)(=O)c1cccc(c1)C(=O)N[C@H](CCCCCCCC2)CO3: +++ (+++ is >60%)
Cc1cccc(C)c1-c1cc2nc(n1)NS(=O)(=O)c1cccc(c1)C(=O)NC[C@@H](CC(C)C)CO2 (stereo in doubt): +++ (+++ is >60%)
Cc1cccc(C)c1-c1cc2nc(n1)NS(=O)(=O)c1cncc(n1)C(=O)N[C@H](CC(C)C)CO2: +++ (+++ is >60%)
Cc1cccc(CCC2CC2)c1-c1cc2nc(n1)NS(=O)(=O)c1cccc(c1)C(=O)N[C@H](CC(C)C)CO2: +++ (+++ is >60%)
C=CCCCCC[C@@H]1COc2cc(-c3ccccc3C=C)nc(n2)NS(=O)(=O)c2cccc(c2)C(=O)N1: +++ (+++ is >60%)

Ask: Please give the measured Ent. B Max Activity for this molecule: Cc1cccc(CC2CCCCC2)c1-c1cc2nc(n1)NS(=O)(=O)c1cccc(c1)C(=O)N[C@H](CC(C)C)CO2
Reply: +++ (+++ is >60%)

Ask: Moving on to Cc1cccc(Cc2cccc(C)c2-c2cc3nc(n2)NS(=O)(=O)c2cccc(c2)C(=O)N[C@H](CC(C)C)CO3)c1
Reply: +++ (+++ is >60%)

----------
- assayed.system: CFTR (Homo sapiens, UniProt P13569)
- protocol.notes: Membrane Potential Dye, Enteroid Assay B
- Assay type: cell-based
- assay.conditions: Table 9
- Protocol: Base medium (ADF+++) consisted of Advanced DMEM/Ham's F12, 2 mM Glutamax, 10 mM HEPES, […] penicillin/streptomycin. Bath 1 Buffer consisted of 1 mM MgCl2, 160 mM NaCl, 4.5 mM KCl, 10 mM HEPES, 10 mM Glucose, 2 mM CaCl2). […] Briefly, cells were washed 5 times in Bath 1 Buffer. […] Chloride transport was initiated by addition of Chloride Free Dye Stimulation Solution and the fluorescence signal was read for 15 min.
experimental.readout: Ent. B Max Activity

Examples with answers:
Cc1cccc(C)c1-c1cc2nc(n1)NS(=O)(=O)c1cccc(c1)C(=O)N[C@@H](C(CC(C)C)c1ccccc1)CO2 (stereo in doubt) [Compound 181]: +++ (+++ is >60%)
Cc1cccc(C)c1-c1cc2nc(n1)NS(=O)(=O)c1cccc(c1)C(=O)NC[C@H](CC(C)C)CO2 (stereo in doubt): ++ (++ is 30-60%)
Cc1cccc(C)c1-c1cc2nc(n1)NS(=O)(=O)c1cccc(c1)C(=O)NC[C@H](c1ccc(/C=C/C(C)(C)C)cc1)O2 (stereo in doubt) [Compound 150]: ++ (++ is 30-60%)
Cc1cccc(C)c1-c1cc2nc(n1)NS(=O)(=O)c1cc(n(C)n1)C(=O)NCC(CC(C)C)(CC(C)C)CO2: ++ (++ is 30-60%)
Cc1cccc(C)c1-c1cc2nc(n1)NS(=O)(=O)c1cccc(c1)C(=O)N[C@@H]1CN(CCC(C)(C)C)C[C@H]1O2: ++ (++ is 30-60%)

# context switch: different molecule, same Ent. B Max Activity
Ask: For Cc1cccc(C)c1-c1cc2nc(n1)NS(=O)(=O)c1cccc(c1)C(=O)NC[C@H](c1ccc(CCC(C)(C)C)cc1)O2 (stereo in doubt) , what is its reported Ent. B Max Activity?
Reply: +++ (+++ is >60%)

----------
- assayed.system: CFTR (Homo sapiens, UniProt P13569)
- protocol.notes: Membrane Potential Dye, Enteroid Assay A
- Type: cell-based
- assay.conditions: Table 9; read-out: Ent. A EC50
Each item that follows carries a reported EC50.

Worked cases, EC50 given:
Cc1cccc(C)c1-c1cc2nc(n1)NS(=O)(=O)c1cccc(c1)C(=O)NC[C@H](c1ccc(CCC(C)(C)C)cc1)O2 (stereo in doubt) [Compound 148]: < 1000 nM
Cc1cccc(C)c1-c1cc2nc(n1)NS(=O)(=O)c1cccc(c1)C(=O)N[C@H](CC(C)C)[C@@H](c1ccc(C(C)(C)C)cc1)O2 (single isomer, unassigned) [Compound 40]: < 1000 nM
Cc1cccc(C)c1-c1cc2nc(n1)NS(=O)(=O)c1cccc(c1)C(=O)N[C@@H]1CN(C3CC4(CCCCC4)C3)C[C@H]1O2: < 1000 nM
Cc1cccc(C)c1-c1cc2nc(n1)NS(=O)(=O)c1cccc(c1)C(=O)N[C@H](C)[C@H](c1ccc(C(F)(F)F)cc1)O2: < 1000 nM
Cc1cccc(C)c1-c1cc2nc(n1)NS(=O)(=O)c1cccc(c1)C(=O)N[C@H](CC1CCCCC1)[C@@H](C1CC1)O2: < 1000 nM
Cc1cccc(C)c1-c1cc2nc(n1)NS(=O)(=O)c1cccc(c1)C(=O)N[C@@H]1CN(C3CCC4(CC3)CC4)C[C@H]1O2: < 1000 nM
CCC(CC)(CC)c1ccc([C@@H]2CNC(=O)c3cccc(c3)S(=O)(=O)Nc3nc(cc(-c4c(C)cccc4C)n3)O2)cc1 [Compound 258]: < 1000 nM
Cc1cccc(C)c1-c1cc2nc(n1)NS(=O)(=O)c1cccc(c1)C(=O)NCC(C#CC(C)(C)C)O2 (stereo not drawn): < 1000 nM

Ask: Report EC50 for COc1cc(Cc2cccc(C)c2-c2cc3nc(n2)NS(=O)(=O)c2cccc(c2)C(=O)N[C@H](CC(C)C)CO3)cc(OC)c1 please.
Reply: < 1000 nM

Ask: Okay, and Cc1cccc(Cc2cccc(C)c2-c2cc3nc(n2)NS(=O)(=O)c2cccc(c2)C(=O)N[C@H](CC(C)C)CO3)c1 ?
Reply: < 1000 nM

Ask: Record: Cc1cccc(C)c1-c1cc2nc(n1)NS(=O)(=O)c1cccc(c1)C(=O)NCC(c1ccc(C(F)(F)C(F)(F)F)cc1)O2 (stereo not drawn)
Reply: < 1000 nM

Ask: And for Cc1cccc(C)c1-c1cc2nc(n1)NS(=O)(=O)c1cccc(c1)C(=O)N[C@@H]1CN(C(C)C)CC[C@H]1O2 ?
Reply: 1000 to 3000 nM

Ask: Lookup Cc1cccc(C)c1-c1cc2nc(n1)NS(=O)(=O)c1cccc(c1)C(=O)NC[C@@H](c1ccc(C3CC3)cc1)O2 [Compound 261]
Reply: 1000 to 3000 nM

Ask: Then Cc1cccc(C)c1-c1cc2nc(n1)NS(=O)(=O)c1cccc(c1)C(=O)N[C@@H]1CN(C3CCC4(CC3)CC4)CC[C@H]1O2 ?
Reply: 1000 to 3000 nM

----------
- assayed.system: CFTR (Homo sapiens)
- protocol.notes: Membrane Potential Dye, Enteroid Assay A
- Assay type: cell-based
- assay.conditions: Table 8; read-out: Ent. A EC50
EC50 listing for selected molecules.

Worked cases, EC50 given:
CC(C)C[C@@H]1COc2cc(C3C(C)CCCC3C)nc(n2)NS(=O)(=O)c2cccc(c2)C(=O)N1 (some centres unmarked) [Compound 300]: < 1000 nM
Cc1ccc(C2CNC(=O)c3cccc(c3)S(=O)(=O)Nc3nc(cc(-c4c(C)cccc4C)n3)O2)cc1 (centres unmarked) [Compound 405]: < 1000 nM
Cc1cccc(C)c1-c1cc2nc(n1)NS(=O)(=O)c1cccc(c1)C(=O)NCC(CC(C)C)O2 (centres unmarked): 1000 to 3000 nM
Cc1cccc(C)c1-c1cc2nc(n1)NS(=O)(=O)c1cccc(c1)C(=O)NCC(c1ccc(C(F)(F)F)cc1)O2 (centres unmarked): < 1000 nM
Cc1cccc(C)c1-c1cc2nc(n1)NS(=O)(=O)c1cccc(c1)C(=O)NCC(c1ccc3c(c1)OCCO3)O2 (centres unmarked): < 1000 nM
Cc1cccc(C)c1-c1cc2nc(n1)NS(=O)(=O)c1cccc(c1)C(=O)NCC(Cc1ccc(C(C)(C)C)cc1)O2 (centres unmarked) [Compound 241]: < 1000 nM
Cc1cccc(C)c1-c1cc2nc(n1)NS(=O)(=O)c1cccc(c1)C(=O)NCC(c1cccc(C#N)c1)O2 (centres unmarked): 3000 to 30000 nM
Cc1cccc(C)c1-c1cc2nc(n1)NS(=O)(=O)c1cccc(c1)C(=O)NCC(C13CC4CC(CC(C4)C1)C3)O2 (centres unmarked): < 1000 nM
Cc1cccc(C)c1-c1cc2nc(n1)NS(=O)(=O)c1cccc(c1)C(=O)NCC(c1ccc(OC(C)C)cc1)O2 (centres unmarked): < 1000 nM
Cc1cccc(C)c1-c1cc2nc(n1)NS(=O)(=O)c1cccc(c1)C(=O)NCC(c1ccc3c(c1)OCO3)O2 (centres unmarked): < 1000 nM

Would you kindly look at the next entry?
Ask: Checklist item: EC50 tested on CFTR (Homo sapiens), entry Cc1cccc(C)c1-c1cc2nc(n1)NS(=O)(=O)c1cccc(n1)C(=O)N[C@H](CC1CCCCC1)CO2 , value?
Reply: < 1000 nM
